target: TTK (human) (UniProt P33981); assay: radiometric filter-binding kinase assay, Kinase HotSpot; details: compound 0.5 µM; ATP 10 µM
Sequence (P33981 whole entry, looked up): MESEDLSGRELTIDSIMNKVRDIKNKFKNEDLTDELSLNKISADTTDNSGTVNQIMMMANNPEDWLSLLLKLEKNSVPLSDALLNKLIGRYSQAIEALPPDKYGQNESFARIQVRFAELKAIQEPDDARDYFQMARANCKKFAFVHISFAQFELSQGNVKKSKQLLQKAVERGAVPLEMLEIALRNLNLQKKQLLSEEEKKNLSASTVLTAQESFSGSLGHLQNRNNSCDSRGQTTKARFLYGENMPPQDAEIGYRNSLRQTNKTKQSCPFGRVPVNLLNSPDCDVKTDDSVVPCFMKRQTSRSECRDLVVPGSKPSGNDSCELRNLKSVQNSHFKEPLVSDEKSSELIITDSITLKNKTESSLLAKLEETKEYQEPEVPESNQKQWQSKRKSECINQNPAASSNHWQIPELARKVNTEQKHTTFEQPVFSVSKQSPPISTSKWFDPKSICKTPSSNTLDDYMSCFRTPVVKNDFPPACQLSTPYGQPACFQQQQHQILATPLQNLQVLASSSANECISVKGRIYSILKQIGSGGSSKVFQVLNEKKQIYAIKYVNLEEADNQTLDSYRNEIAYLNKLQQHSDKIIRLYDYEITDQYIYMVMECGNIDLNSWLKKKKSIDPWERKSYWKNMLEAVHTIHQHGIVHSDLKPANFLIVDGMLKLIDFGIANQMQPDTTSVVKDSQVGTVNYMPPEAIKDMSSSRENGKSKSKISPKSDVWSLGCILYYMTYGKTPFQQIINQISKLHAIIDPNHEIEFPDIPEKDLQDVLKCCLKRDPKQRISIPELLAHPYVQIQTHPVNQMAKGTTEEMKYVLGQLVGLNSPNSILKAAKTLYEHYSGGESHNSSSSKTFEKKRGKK
Readout name: residual activity (%)
// return numeric value only (unit: %, not printed)

Exercise: I'd like to know its residual activity. The molecule in question is N#Cc1c(NC(=O)c2cccc3ccccc23)sc2c1CCCC2
Key: 85.5

Exercise: Cool, now O=c1[nH]c2ccccc2n1C1CCN(Cc2ccc(-c3nc4cc5[nH]cnc5cc4nc3-c3ccccc3)cc2)CC1
Key: 104

Exercise: Consider next the molecule N#CCCc1ccc2c(c1)-c1[nH]c3ccc([N+](=O)[O-])cc3c1CC(=O)N2 in the same way.
Key: 71.7

Exercise: Now give it for Cn1cc(/C=C2\C(=O)Nc3ccc(S(N)(=O)=O)cc32)c2ccccc21 too.
Key: 97.3

Exercise: Note, next up: Cc1cc(Nc2nc(-c3ccccc3)nc3ccccc23)n[nH]1
Key: 102

----------
target: NTRK2 (human) (UniProt Q16620); assay: radiometric filter-binding kinase assay, Kinase HotSpot; conditions: compound 0.5 µM; ATP 10 µM
Sequence (Q16620 whole entry, looked up): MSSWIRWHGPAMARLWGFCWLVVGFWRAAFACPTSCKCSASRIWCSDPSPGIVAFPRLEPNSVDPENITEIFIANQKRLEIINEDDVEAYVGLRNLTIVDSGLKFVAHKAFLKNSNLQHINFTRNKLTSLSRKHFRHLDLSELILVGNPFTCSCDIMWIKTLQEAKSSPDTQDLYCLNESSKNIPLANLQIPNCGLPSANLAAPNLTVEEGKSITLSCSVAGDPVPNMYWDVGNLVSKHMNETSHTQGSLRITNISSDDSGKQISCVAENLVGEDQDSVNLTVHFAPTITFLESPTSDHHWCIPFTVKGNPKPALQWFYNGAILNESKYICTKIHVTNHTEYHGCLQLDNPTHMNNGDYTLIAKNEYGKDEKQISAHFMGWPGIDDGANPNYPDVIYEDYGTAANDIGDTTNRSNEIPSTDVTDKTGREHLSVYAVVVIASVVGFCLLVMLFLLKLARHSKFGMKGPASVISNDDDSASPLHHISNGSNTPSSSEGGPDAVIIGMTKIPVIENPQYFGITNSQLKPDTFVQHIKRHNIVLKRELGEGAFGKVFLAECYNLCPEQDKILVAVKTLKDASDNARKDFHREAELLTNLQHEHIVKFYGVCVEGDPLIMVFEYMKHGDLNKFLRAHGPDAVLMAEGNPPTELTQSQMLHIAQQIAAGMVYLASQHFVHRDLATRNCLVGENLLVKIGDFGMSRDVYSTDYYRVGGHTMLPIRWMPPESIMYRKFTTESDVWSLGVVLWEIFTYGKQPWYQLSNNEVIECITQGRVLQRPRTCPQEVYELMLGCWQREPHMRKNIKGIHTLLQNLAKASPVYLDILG
Hi there, I'd appreciate the recorded residual activity for every entry that follows.
Dear colleague, please return just the value in %, with no unit written.

Exercise: I am curious: what residual activity value has been reported for COc1cc2c(N3CCN(C(=O)Nc4ccc(OC(C)C)cc4)CC3)ncnc2cc1OCCCN1CCCCC1 ?
Key: 81.7

Exercise: Now this one: Cc1cc(Nc2nc(-c3ccccc3)nc3ccccc23)n[nH]1
Key: 4.37

Exercise: Can you check O=c1cc(N2CCOCC2)oc2c(-c3ccccc3)cccc12 next?
Key: 112

Exercise: Also Cn1cc(/C=C2\C(=O)Nc3ccc(S(N)(=O)=O)cc32)c2ccccc21 , if possible.
Key: 4.83

Exercise: Same read-out for O=c1[nH]c2ccccc2n1C1CCN(Cc2ccc(-c3nc4cc5[nH]cnc5cc4nc3-c3ccccc3)cc2)CC1 ?
Key: 99.4

Exercise: Same for O=C(O)c1ccc2c3c1cccc3c(=O)n1c3ccccc3nc21
Key: 98.4

Exercise: // next record FC(F)(F)c1ccc(/C=C/c2nc(COc3ccc(CCCCn4ccnn4)cc3)co2)cc1
Key: 102

Exercise: Could you do the same for COc1cc2c(cc1OC)-c1[nH]nc(Nc3cccc(F)c3)c1C2 , please?
Key: 102

Exercise: Quick one: CCc1nc(-c2ccc(OC)cc2)[nH]c1-c1ccncc1
Key: 105

Exercise: Repeat for the following molecule: c1ccc(-c2cnc(Nc3ccc(OCCN4CCCC4)cc3)s2)cc1
Key: 50.4

----------
target: MAP4K2 (human) (UniProt Q12851); experiment: radiometric filter-binding kinase assay, Kinase HotSpot; settings: compound 0.5 µM; ATP 10 µM
Sequence (Q12851 whole entry, looked up): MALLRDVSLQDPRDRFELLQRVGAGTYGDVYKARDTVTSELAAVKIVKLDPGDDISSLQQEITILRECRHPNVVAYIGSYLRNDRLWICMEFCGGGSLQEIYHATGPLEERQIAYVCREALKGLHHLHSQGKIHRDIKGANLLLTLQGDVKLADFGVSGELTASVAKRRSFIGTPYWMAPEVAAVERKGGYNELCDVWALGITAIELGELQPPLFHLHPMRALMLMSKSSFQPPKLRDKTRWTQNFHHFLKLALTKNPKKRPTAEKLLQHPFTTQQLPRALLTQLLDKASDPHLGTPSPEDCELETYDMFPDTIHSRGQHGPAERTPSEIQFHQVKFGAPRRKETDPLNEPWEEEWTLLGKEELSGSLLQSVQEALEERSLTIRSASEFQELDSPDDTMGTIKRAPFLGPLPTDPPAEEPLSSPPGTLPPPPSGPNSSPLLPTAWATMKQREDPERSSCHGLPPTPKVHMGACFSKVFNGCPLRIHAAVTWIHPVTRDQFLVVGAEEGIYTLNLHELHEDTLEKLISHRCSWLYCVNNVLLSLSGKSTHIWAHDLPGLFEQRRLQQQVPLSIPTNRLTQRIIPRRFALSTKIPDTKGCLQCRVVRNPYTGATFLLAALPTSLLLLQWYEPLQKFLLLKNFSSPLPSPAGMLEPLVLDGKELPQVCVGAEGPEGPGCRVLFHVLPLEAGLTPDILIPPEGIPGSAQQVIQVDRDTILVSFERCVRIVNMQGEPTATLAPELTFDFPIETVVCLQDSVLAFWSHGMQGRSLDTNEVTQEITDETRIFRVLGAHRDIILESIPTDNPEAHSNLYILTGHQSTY
Please provide measured residual activity for the entries that follow.
The reply should contain only the number, in %.

Exercise: residual activity of COc1cc2c(cc1OC)-c1[nH]nc(Nc3cccc(F)c3)c1C2 on MAP4K2 (human) (UniProt Q12851)?
Key: 103

Exercise: Field entry: Cc1cc(Nc2nc(-c3ccccc3)nc3ccccc23)n[nH]1
Key: 45.3

Exercise: Then this molecule: Nc1ncnc2c1cnn2-c1ccccc1
Key: 94.9

Exercise: c1ccc(-c2cnc(Nc3ccc(OCCN4CCCC4)cc3)s2)cc1 ?
Key: 113
